- Tested on: ABL2
- experimental_context: concentration: 1 μM, replicates: in singlicate; n = 1;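 further: KINOMEscan kinase panel screen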
observable: %Inh (%)

molecule=Cc1cccc(Nc2nc(N[C@H]3CCCC[C@H]3N)ncc2C(N)=O)c1.Cl result_value=24
molecule="NCCC(NC(=O)c1cc(Br)c(-c2ccnc3[nH]ccc23)s1)c1ccccc1.O=C(O)C(F)(F)F.O=C(O)C(F)(F)F (centres unmarked)" result_value=8
molecule=O=C(Nc1c(F)cccc1F)c1cc(C(=O)c2ccccc2F)c[nH]1 result_value=0
molecule=Cn1cc(-c2ccc3c(c2)CCN3C(=O)Cc2cc(F)cc(F)c2F)c2c(N)ncnc21 result_value=57
molecule=CN(C)CCNS(=O)(=O)c1ccc(-c2ccnc3[nH]ccc23)cc1 result_value=8
molecule=Cc1ccc(O)cc1Nc1ccnc2ccc(C(C)(C)C)cc12 result_value=90.2
molecule=CN(C)CCOc1ccc(-c2cc(-c3ccc(Cl)c(O)c3)c(-c3ccncc3)[nH]2)cc1.Cl.Cl result_value=34
molecule=O=C(Nc1n[nH]c2nc(-c3ccccc3O)ccc12)C1CC1 result_value=55

====

Listed next: entries and their corresponding %Inh.
- System: FLT4
- experimental_context: concentration: 1 μM, replicates: in singlicate; n = 1
observable: %Inh (%)

molecule=O=C(Nc1n[nH]c2nc(-c3ccccc3O)ccc12)C1CC1 result_value=0
molecule=CCOc1nccc(-c2c(-c3ccc(F)cc3)ncn2C2CCNCC2)n1 result_value=2
molecule=CC(=O)Nc1cn2nc(Oc3cccc(NC(=O)c4cccc(C(F)(F)F)c4)c3)ccc2n1 result_value=100
molecule=Cc1ccc(NC(=O)c2ccnc(N3CCCCC3)c2)cc1-c1ccc(C(=O)NCC2CC2)cc1 result_value=0
molecule=O=C(Nc1n[nH]c2nc(-c3cccc(O)c3)ccc12)C1CC1 result_value=0
molecule=Nc1cccc(-c2ccc3c(N)n[nH]c3c2)c1 result_value=0
molecule=CC(C)(C)c1ccc(C(=O)Nc2cn3cc(-n4ccnc4)ccc3n2)cc1 result_value=0
molecule=CS(=O)(=O)c1cccc(CNc2nc(Nc3ccc4c(c3)CCC(=O)N4)ncc2C(F)(F)F)c1 result_value=89
molecule="Cc1ccc(-c2ccc3occ(-c4ccc(S(C)=O)cc4)c3c2)nn1 (stereo not drawn)" result_value=0

====

- System: NEK7
- experimental_context: concentration: 1 μM, replicates: in singlicate; n = 1
observable: %Inh

molecule=CN(C)CCNS(=O)(=O)c1ccc(-c2ccnc3[nH]ccc23)cc1 result_value=0%
molecule=CCn1c(-c2nonc2N)nc2c(-c3ccccc3)ncc(OCCCN)c21.O=C(O)C(F)(F)F.O=C(O)C(F)(F)F result_value=0%
molecule=COc1cc(Nc2ccnc3cc(-c4ccncc4)ccc23)cc(OC)c1OC.Cl result_value=0%
molecule=COc1cccc(NC(=O)NCCNc2ccnc(Nc3ccc(F)cc3)n2)c1 result_value=0%
molecule=O=C(Nc1n[nH]c2cc(-c3cccs3)ccc12)C1CC1 result_value=0%
molecule=Cn1cc(-c2ccc3c(c2)CCN3C(=O)Cc2cc(F)cc(C(F)(F)F)c2)c2c(N)ncnc21 result_value=0%
molecule=O=C(O)C(F)(F)F.O=c1[nH]ccc2nc(N[C@@H]3CCNC3)nc(Nc3ccc4c(c3)S(=O)(=O)CC4)c12 result_value=5%
molecule="NCCC(NC(=O)c1cc(Br)c(-c2ccnc3[nH]ccc23)s1)c1ccccc1.O=C(O)C(F)(F)F.O=C(O)C(F)(F)F (stereo not shown)" result_value=0%
molecule=CC(C)(C)c1ccc(C(=O)Nc2cn3cc(-n4ccnc4)ccc3n2)cc1 result_value=0%
molecule=COc1cccc(CC(=O)N2CCc3cc(-c4cn(C)c5ncnc(N)c45)ccc32)c1 result_value=11%
molecule=COC(=O)Nc1nc2cc(Oc3ccc(NC(=O)Nc4cccc(SC)c4)cc3)ccc2[nH]1.Cl result_value=0%
molecule=CSc1ccc(NC2=C(c3ccc(Cl)cc3)C(=O)NC2=O)cc1 result_value=0%
molecule=CC(=O)Nc1cn2nc(Oc3cccc(NC(=O)c4cccc(C(F)(F)F)c4)c3)ccc2n1 result_value=0%
molecule=CCNC(=O)/C=C/c1n[nH]c2cc(Sc3ccccc3C(=O)NC)ccc12 result_value=0%
molecule=Cn1cc(-c2cnc(N)c3c(-c4ccc5c(c4)CCN5C(=O)Cc4ccccc4)csc23)cn1 result_value=0%
molecule="Cl.Cl.NCC(NC(=O)c1cc(-c2cccnc2)c(-c2ccnc3[nH]ccc23)s1)c1ccccc1 (stereo not shown)" result_value=0%
molecule=COc1ccc(NC(=O)c2ccoc2)cc1-c1ccc(C(=O)NCC2CC2)cc1 result_value=0%
molecule=CS(=O)(=O)c1cccc(CNc2nc(Nc3ccc4c(c3)CCC(=O)N4)ncc2C(F)(F)F)c1 result_value=0%
molecule=COc1cccc(C2=C(Nc3cccc(O)c3)C(=O)NC2=O)c1 result_value=7%

====

The following compounds are shown together with reported %Inh values.
- Tested on: WNK4
- experimental_context: concentration: 1 μM, replicates: in singlicate; n = 1
observable: %Inh (%)

mol=Cc1ccc(Nc2ccnc(Nc3ccc(C)c(F)c3)n2)cc1O.Cl result_value=49
mol=O=C(Nc1n[nH]c2nc(-c3ccccc3)ccc12)C1CC1 result_value=60
mol=Cc1ccc(NC(=O)c2ccnc(N3CCCCC3)c2)cc1-c1ccc(C(=O)NCC2CC2)cc1 result_value=0
mol=Cc1cc(-c2c(-c3ccc(F)cc3)ncn2CCCN2CCOCC2)nc(N)n1 result_value=0
mol=O=C(Nc1c(F)cccc1F)c1cc(C(=O)c2ccccc2F)c[nH]1 result_value=0

====

The molecules listed here are annotated with their %Inh.
- Test system: CAMK2D
- experimental_context: concentration: 1 μM, replicates: in singlicate; n = 1
observable: %Inh (%)

mol=CN(c1ccc(NC(=O)Nc2cccc(Cl)c2)cc1)c1ccnc(N)n1.Cl observable=%Inh result_value=10
mol=CNc1nccc(-c2ccc3c(N)n[nH]c3c2)n1 observable=%Inh result_value=33
mol=CN(C)CCNS(=O)(=O)c1ccc(-c2ccnc3[nH]ccc23)cc1 observable=%Inh result_value=0
mol=Fc1cc(Cl)ccc1Nc1ccnc2cc(-c3ccc(CN4CCOCC4)o3)ccc12 observable=%Inh result_value=0
mol=COc1ccc(C2=C(Nc3cccc(O)c3)C(=O)NC2=O)cc1 observable=%Inh result_value=11

====

- Tested on: TNNI3K
- experimental_context: concentration: 1 μM, replicates: in singlicate; n = 1
observable: %Inh (%)

molecule=N#CC1(c2cccc(C(=O)Nc3cccc(Oc4ccc5nc(NC(=O)C6CC6)sc5n4)c3)c2)CC1 subject_of_test=TNNI3K observable=%Inh result_value=90.5
molecule=CNc1nccc(-c2ccc3c(N)n[nH]c3c2)n1 subject_of_test=TNNI3K observable=%Inh result_value=0
molecule=CN(c1ccc2c(c1)nc(NCc1ccccc1)n2C)c1ccnc(Nc2ccc(CS(C)(=O)=O)cc2)n1.Cl subject_of_test=TNNI3K observable=%Inh result_value=0
molecule=CN1CCN(Cc2ccc(NC(=O)Nc3ccc(N(C)c4ccnc(Nc5ccc(CS(C)(=O)=O)cc5)n4)cc3)cc2)CC1.Cl subject_of_test=TNNI3K observable=%Inh result_value=46
molecule="Cc1ccc(-c2ccc3occ(-c4ccc(S(C)=O)cc4)c3c2)nn1 (centres unmarked)" subject_of_test=TNNI3K observable=%Inh result_value=0
molecule=O=C1NC(=O)C(c2ccccc2Cl)=C1Nc1cccc(Cl)c1 subject_of_test=TNNI3K observable=%Inh result_value=98.7
molecule=Nc1ncnc2scc(-c3ccc(NC(=O)Cc4cc(F)ccc4F)cc3)c12.O=C(O)C(F)(F)F subject_of_test=TNNI3K observable=%Inh result_value=0
molecule=Cn1cc(-c2ccc3c(c2)CCN3C(=O)Cc2cc(F)cc(C(F)(F)F)c2)c2c(N)ncnc21 subject_of_test=TNNI3K observable=%Inh result_value=47

====

# Lookup of reported %Inh keyed by entry
- Test system: PRKCD
- experimental_context: concentration: 1 μM, replicates: in singlicate; n = 1
observable: %Inh (%)

compound="O=C(Nc1n[nH]c2nc(-c3ccccc3O)ccc12)C1CC1 [SB-711880]" units_label=% result_value=25
compound="COc1cccc(C2=C(Nc3cccc(O)c3)C(=O)NC2=O)c1 [SB-390771]" units_label=% result_value=20
compound="COC(=O)Nc1nc2cc(Oc3ccc(NC(=O)Nc4cccc(SC)c4)cc3)ccc2[nH]1.Cl [GW697999]" units_label=% result_value=1
compound="Cc1ccc(C)c(NC(=O)Nc2ccc(C)c(-c3ccc(C(=O)Nc4ccncc4)cc3)c2)c1 [GSK1398473]" units_label=% result_value=0
compound="CN(C)CCNS(=O)(=O)c1ccc(-c2ccnc3[nH]ccc23)cc1 [GSK977620]" units_label=% result_value=83
compound="CN1CCN(Cc2ccc(NC(=O)Nc3ccc(N(C)c4ccnc(Nc5ccc(CS(C)(=O)=O)cc5)n4)cc3)cc2)CC1.Cl [GW827654]" units_label=% result_value=5
compound="CCn1c(-c2nonc2N)nc2c(-c3ccccc3)ncc(OCCCN)c21.O=C(O)C(F)(F)F.O=C(O)C(F)(F)F [GSK260205]" units_label=% result_value=97.9
compound="COc1cccc2c(-c3ccncc3)c(-c3ccc(F)cc3)nn12 [GW468513]" units_label=% result_value=6
compound="O=C(O)C(F)(F)F.O=c1[nH]ccc2nc(N[C@@H]3CCNC3)nc(Nc3ccc4c(c3)S(=O)(=O)CC4)c12 [GSK2181306]" units_label=% result_value=99.1
compound="Cc1ccc(O)cc1Nc1ccnc2cc(-c3ccc(CN4CCCCC4)o3)ccc12 [GW557777]" units_label=% result_value=0
compound="COC(=O)Nc1nc2ccc(Oc3ccc(CC(=O)Nc4cc(C(F)(F)F)ccc4F)cc3)cc2[nH]1 [GW680903]" units_label=% result_value=0
compound="Cl.O=C(Nc1ccc(Oc2ccc3[nH]c(NC(=O)c4ccco4)nc3c2)cc1)Nc1cc(C(F)(F)F)ccc1F [GW683134]" units_label=% result_value=4
compound=CC(=O)Nc1cn2nc(Oc3cccc(NC(=O)c4cccc(C(F)(F)F)c4)c3)ccc2n1 units_label=% result_value=0
compound=CC(C)(C)c1ccc(C(=O)Nc2cn3cc(-n4ccnc4)ccc3n2)cc1 units_label=% result_value=7
compound="CCn1cnc2c(NCc3ccccc3)ncnc21 [SKF-96418]" units_label=% result_value=3
compound="CN(c1ccc(NC(=O)N2CCN(CCCN3CCOCC3)CC2)cc1)c1ccnc(Nc2ccc(CS(C)(=O)=O)cc2)n1.Cl [GW830899]" units_label=% result_value=23
compound="O=C(Nc1n[nH]c2cc(-c3cccs3)ccc12)C1CC1 [SB-731284]" units_label=% result_value=17
